In this section, each of the binders is paired with its reported Kd.
- subjectOfTest: T1, IL-2hex, mutant human IL-2 (deltaA1/T3A/F42A/Y45A/L72G/C125S) (human, UniProt P60568 22-153)
- T1 chain: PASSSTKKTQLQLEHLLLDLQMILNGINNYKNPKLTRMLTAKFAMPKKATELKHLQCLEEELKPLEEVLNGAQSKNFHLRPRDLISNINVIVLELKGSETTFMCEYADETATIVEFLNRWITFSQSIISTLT
- experimentNotes: Affinity (nM), Table 13B
Enter your answer as a number in nM; do not include the unit.

D029 HV2LV4 (bispecific antibody, V domains shown, also called Rev1-Q27G:P94Y/S55L:S32F) VH: EVQLVESGGGLVQPGGSLRLSCAASGFTFTWFFMSWVRQAPGKGLEWVSWIGPSGLYTDYADSVKGRFTISRDNSKNTLYLQMNSLRAEDTAVYYCARSQYGRYYSPDYYFDYWGQGTLVTVSS VL: DIQMTQSPSSLSASVGDRVTITCRASGALGFYLNWYQQKPGKAPKLLIYAASSLSSGVPSRFSGSGSGTDFTLTISSLQPEDFATYYCQQGRTYPLTFGQGTKVEIKR = 1590
D029-HV1LV1 (bispecific antibody, V domains shown, also called D029 Rev1/S55L; D029HVILV1 (so in the source)) VH: EVQLVESGGGLVQPGGSLRLSCAASGFTFTWSFMSWVRQAPGKGLEWVSWIGPSGLYTDYADSVKGRFTISRDNSKNTLYLQMNSLRAEDTAVYYCARSQYGRYYSPDYYFDYWGQGTLVTVSS VL: DIQMTQSPSSLSASVGDRVTITCRASQALGFYLNWYQQKPGKAPKLLIYAASSLSSGVPSRFSGSGSGTDFTLTISSLQPEDFATYYCQQGRTPPLTFGQGTKVEIKR = 427
D029 HV3LV2 (bispecific antibody, V domains shown, also called D029L-Rev1:Q27G:P94Y:L96F/S55L:T30R:S32F) VH: EVQLVESGGGLVQPGGSLRLSCAASGFTFRWFFMSWVRQAPGKGLEWVSWIGPSGLYTDYADSVKGRFTISRDNSKNTLYLQMNSLRAEDTAVYYCARSQYGRYYSPDYYFDYWGQGTLVTVSS VL: DIQMTQSPSSLSASVGDRVTITCRASGALGFYLNWYQQKPGKAPKLLIYAASSLSSGVPSRFSGSGSGTDFTLTISSLQPEDFATYYCQQGRTYPFTFGQGTKVEIKR = 100
D029 HV2LV3 (bispecific antibody, V domains shown, also called Rev1-Q27G:L96F/S55L:S32F; two-in-one antibody within FB-675) VH: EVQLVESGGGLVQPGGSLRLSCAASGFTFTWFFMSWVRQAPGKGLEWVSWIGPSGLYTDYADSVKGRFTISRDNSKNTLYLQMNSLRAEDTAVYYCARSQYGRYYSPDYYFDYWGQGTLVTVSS VL: DIQMTQSPSSLSASVGDRVTITCRASGALGFYLNWYQQKPGKAPKLLIYAASSLSSGVPSRFSGSGSGTDFTLTISSLQPEDFATYYCQQGRTPPFTFGQGTKVEIKR = 217
anti-IL-2/anti-FAP two-in-one antibody D029 (bispecific antibody, V domains shown) VH: EVQLVESGGGLVQPGGSLRLSCAASGFTFTWSFMSWVRQAPGKGLEWVSWIGPSGSYTDYADSVKGRFTISRDNSKNTLYLQMNSLRAEDTAVYYCARSQYGRYYSPDYYFDYWGQGTLVTVSS VL: DIQMTQSPSSLSASVGDRVTITCRASQDGGNYLNWYQQKPGKAPKLLIYGASTLYSGVPSRFSGSGSGTDFTLTISSLQPEDFATYYCQQGRTPPLTFGQGTKVEIKR = 431

Query: Give the reported value of Kd for this record: D029 HV2LV2 (bispecific antibody, V domains shown, also called Rev1-Q27G:P94Y:L96F/S55L:S32F) VH: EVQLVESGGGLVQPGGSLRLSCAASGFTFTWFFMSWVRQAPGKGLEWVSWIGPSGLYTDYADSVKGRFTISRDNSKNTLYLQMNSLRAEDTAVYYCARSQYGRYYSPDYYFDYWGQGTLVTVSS VL: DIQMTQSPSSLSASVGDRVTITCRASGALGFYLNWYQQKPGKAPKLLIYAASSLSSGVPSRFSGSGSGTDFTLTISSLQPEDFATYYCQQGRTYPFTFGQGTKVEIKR
Result: 419

Query: Give the reported value of Kd for this record: Rev1-Q27G/P94Y/L96F:H1V11 (bispecific antibody, V domains shown, H1V11 = D029 VH with W31Y:S32F:S55L; also called H1V11 with D029LV2) VH: EVQLVESGGGLVQPGGSLRLSCAASGFTFTYFFMSWVRQAPGKGLEWVSWIGPSGLYTDYADSVKGRFTISRDNSKNTLYLQMNSLRAEDTAVYYCARSQYGRYYSPDYYFDYWGQGTLVTVSS VL: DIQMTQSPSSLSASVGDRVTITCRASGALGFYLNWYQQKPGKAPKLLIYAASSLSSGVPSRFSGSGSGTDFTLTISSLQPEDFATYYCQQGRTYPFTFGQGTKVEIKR
Result: 600

Query: Give the reported value of Kd for this record: D029 HV5LV1 (bispecific antibody, V domains shown, also called Rev1/S55L:T30R:S32A) VH: EVQLVESGGGLVQPGGSLRLSCAASGFTFRWAFMSWVRQAPGKGLEWVSWIGPSGLYTDYADSVKGRFTISRDNSKNTLYLQMNSLRAEDTAVYYCARSQYGRYYSPDYYFDYWGQGTLVTVSS VL: DIQMTQSPSSLSASVGDRVTITCRASQALGFYLNWYQQKPGKAPKLLIYAASSLSSGVPSRFSGSGSGTDFTLTISSLQPEDFATYYCQQGRTPPLTFGQGTKVEIKR
Result: 331

Query: Give the reported value of Kd for this record: D029 HV3LV1 (bispecific antibody, V domains shown, also called D029L-Rev1/S55L:T30R:S32F; Rev1/S55L:T30R:S32F) VH: EVQLVESGGGLVQPGGSLRLSCAASGFTFRWFFMSWVRQAPGKGLEWVSWIGPSGLYTDYADSVKGRFTISRDNSKNTLYLQMNSLRAEDTAVYYCARSQYGRYYSPDYYFDYWGQGTLVTVSS VL: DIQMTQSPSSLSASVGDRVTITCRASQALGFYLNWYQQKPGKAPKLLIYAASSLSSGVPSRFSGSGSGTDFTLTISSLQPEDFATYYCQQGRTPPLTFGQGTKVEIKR
Result: 237

Query: Give the reported value of Kd for this record: D029HV6LV2 (bispecific antibody, V domains shown, also called Rev1-Q27G:P94Y:L96F/S55L:S32A) VH: EVQLVESGGGLVQPGGSLRLSCAASGFTFTWAFMSWVRQAPGKGLEWVSWIGPSGLYTDYADSVKGRFTISRDNSKNTLYLQMNSLRAEDTAVYYCARSQYGRYYSPDYYFDYWGQGTLVTVSS VL: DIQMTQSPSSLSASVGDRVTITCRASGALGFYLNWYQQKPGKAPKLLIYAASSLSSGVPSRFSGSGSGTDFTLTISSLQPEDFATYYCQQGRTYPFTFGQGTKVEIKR
Result: 199

Each recorded value in this set is attributed to patent US20240358849A1.
